Recorded values, source ChEMBL document CHEMBL5537205.

run description: Half-life in Sprague-Dawley rat at 20 mg/kg, po measured after 48 hrs
Assay type: ADME, organism-based
measurement context: in vivo
measure: half-life (h)

# line notation, data value
measured = [
    ("c1cc(-c2cc(C3CCNCC3)n[nH]2)c2cc[nH]c2n1", 3.34),
]

====

run description: Half-life in Sprague-Dawley rat at 5 mg/kg, iv measured after 48 hrs
Assay type: ADME, organism-based
measurement context: in vivo

# line notation, unit string, half-life
data = [
    ("c1cc(-c2cc(C3CCNCC3)n[nH]2)c2cc[nH]c2n1", "h", 5.52),
]

====

run description: Cmax in Sprague-Dawley rat at 20 mg/kg, po measured after 48 hrs
Format: ADME, organism-based
measurement context: in vivo
measure: Cmax

# line notation, data value
measured = [
    ("c1cc(-c2cc(C3CCNCC3)n[nH]2)c2cc[nH]c2n1", "26.2 ng/mL"),
]
